These entries and their values trace back to paper PMC2857669.

# targetDesc: ferric verdoheme-hHO-1 (Homo sapiens, UniProt P09601)
# Sequence (P09601 1-265 limits assumed): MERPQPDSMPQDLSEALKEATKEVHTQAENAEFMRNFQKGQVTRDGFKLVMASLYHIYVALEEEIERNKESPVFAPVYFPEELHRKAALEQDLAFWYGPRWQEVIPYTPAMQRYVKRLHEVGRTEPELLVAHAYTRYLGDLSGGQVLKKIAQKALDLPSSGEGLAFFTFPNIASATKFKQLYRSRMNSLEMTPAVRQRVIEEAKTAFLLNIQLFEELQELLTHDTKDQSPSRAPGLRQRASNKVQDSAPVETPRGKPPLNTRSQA
# experimentalProtocol: biochemical
# Format: binding
# particulars: ferric verdoheme-hHO-1 generated with one equivalent H2O2
endpointName: pKd
Lab note — pKd values are minus log10 of concentrations in M.

Query: Using the record for [C-]#[N+]C(C)C [isopropyl isocyanide] , report its pKd.
Response: 3.36
